# systemUnderTest: Wee1 kinase domain (Homo sapiens, UniProt P30291)
# Construct: Wee1 kinase domain was purchased from Carna (catalog #05-177); purchased Carna 05-177
# Sequence (P30291 299-569 limits assumed): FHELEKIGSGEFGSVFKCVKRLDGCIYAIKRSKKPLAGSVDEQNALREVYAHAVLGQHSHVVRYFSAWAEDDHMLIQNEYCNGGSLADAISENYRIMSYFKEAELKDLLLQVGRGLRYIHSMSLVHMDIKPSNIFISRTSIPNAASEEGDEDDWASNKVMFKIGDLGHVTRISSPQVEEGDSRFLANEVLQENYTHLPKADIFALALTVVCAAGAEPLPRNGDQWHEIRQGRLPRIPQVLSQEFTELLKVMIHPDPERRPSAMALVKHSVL
# assayOverview: Wee1 Kinase Biochemical Assay (ADP-Glo)
# experimentalSetup: Wee1 kinase domain, 15 uM ATP, ADP-Glo
Documented IC50 across a set of compounds
reportedProperty: IC50

compound: CN1CCC[C@H]1c1ccc(Nc2ncc3c(n2)N(c2cccc(N=S(C)(C)=O)n2)[C@H]2CC(C)(C)OC[C@@]32C)cn1 (single isomer, unassigned)
reading: 100 to 1000 nM
--
compound: C[C@H]1COC(=O)N1c1cccc(N2c3nc(Nc4ccc([C@@H]5CCN(C)C5)cc4)ncc3[C@]3(C)COC(C)(C)C[C@H]23)n1 (single isomer, unassigned)
reading: 10 to 100 nM
--
compound: C[C@H]1COC(=O)N1c1cccc(N2c3nc(Nc4cnn(C5CCNCC5)c4)ncc3[C@@]3(C)COC(C)(C)C[C@@H]23)n1 (single isomer, unassigned)
reading: < 10 nM

====

Documented pIC50 across a set of compounds
# systemUnderTest: Wee1 kinase domain (Homo sapiens)
# Construct: Wee1 kinase domain was purchased from Carna (catalog #05-177); purchased Carna 05-177
# assayOverview: Wee1 Kinase Biochemical Assay (ADP-Glo)
# experimentalSetup: Wee1 kinase domain, 15 uM ATP, ADP-Glo
pIC50: −log10 of the molar value.

compound: CNCc1cccc(N2c3nc(Nc4ccc(N5CCS(=N)(=O)CC5)cc4)ncc3[C@]3(C)COC(C)(C)C[C@H]23)n1 (single isomer, unassigned) [Example 50]
systemUnderTest: Wee1 kinase domain (Homo sapiens)
pIC50: 7.00 to 8.00
--
compound: CC1(C)C[C@H]2N(c3cccc(N=S(C)(C)=O)n3)c3nc(Nc4ccc([C@@H]5CCCN5)nc4)ncc3[C@@]2(C)CO1 (single isomer, unassigned) [Example 214]
systemUnderTest: Wee1 kinase domain (Homo sapiens)
pIC50: > 8.00
--
compound: CN1CC2(C1)CN(c1ccc(Nc3ncc4c(n3)N(c3cccc(N=S(C)(C)=O)n3)[C@H]3CC(C)(C)OC[C@@]43C)cc1)C2 (single isomer, unassigned) [Example 220]
systemUnderTest: Wee1 kinase domain (Homo sapiens)
pIC50: 6.00 to 7.00
--
compound: CN1CCC[C@@H]1c1ccc(Nc2ncc3c(n2)N(c2cccc(N=S(C)(C)=O)n2)[C@H]2CC(C)(C)OC[C@@]32C)cc1 (single isomer, unassigned) [Example 128]
systemUnderTest: Wee1 kinase domain (Homo sapiens)
pIC50: 6.00 to 7.00
--
compound: Cc1cc(Nc2ncc3c(n2)N(c2cccc(N4C(=O)OC[C@@H]4C)n2)[C@@H]2CC(C)(C)OC[C@]32C)ccc1O[C@@H]1CCNC1 (single isomer, unassigned) [Example 337]
systemUnderTest: Wee1 kinase domain (Homo sapiens)
pIC50: > 8.00
--
compound: C[C@H]1COC(=O)N1c1cccc(N2c3nc(Nc4ccc([C@@H]5CCNC5)nc4)ncc3[C@]3(C)COC(C)(C)C[C@H]23)n1 (single isomer, unassigned) [Example 256]
systemUnderTest: Wee1 kinase domain (Homo sapiens)
pIC50: 7.00 to 8.00
--
compound: CC1(C)C[C@H]2N(c3cccc([C@@H]4CCCN4)n3)c3nc(Nc4ccn(C5CCOCC5)c(=O)c4)ncc3[C@@]2(C)CO1 (single isomer, unassigned) [Example 392]
systemUnderTest: Wee1 kinase domain (Homo sapiens)
pIC50: > 8.00
--
compound: CNCc1cccc(N2c3nc(Nc4ccc([C@H]5CCC(=O)N5C)cc4)ncc3[C@@]3(C)COC(C)(C)C[C@@H]23)n1 (single isomer, unassigned) [Example 54]
systemUnderTest: Wee1 kinase domain (Homo sapiens)
pIC50: > 8.00
--
compound: CNCc1cccc(N2c3nc(Nc4ccc(S(C)(=O)=O)cc4)ncc3[C@]3(C)COC(C)(C)C[C@H]23)n1 (single isomer, unassigned) [Example 33]
systemUnderTest: Wee1 kinase domain (Homo sapiens)
pIC50: 6.00 to 7.00
--
compound: CC1(C)C[C@H]2N(c3cccc(N=S(C)(C)=O)n3)c3nc(Nc4ccc5cnoc5c4)ncc3[C@@]2(C)CO1 (single isomer, unassigned) [Example 381]
systemUnderTest: Wee1 kinase domain (Homo sapiens)
pIC50: > 8.00
--
compound: [2H]C([2H])([2H])n1ccc(Nc2ncc3c(n2)N(c2cccc(N=S(C)(C)=O)n2)[C@@H]2CC(C)(C)OC[C@]32C)cc1=O (single isomer, unassigned) [Example 378]
systemUnderTest: Wee1 kinase domain (Homo sapiens)
pIC50: > 8.00

====

# systemUnderTest: Wee1 kinase domain (Homo sapiens, UniProt P30291)
# Construct: Wee1 kinase domain was purchased from Carna (catalog #05-177); purchased Carna 05-177
# assayOverview: Wee1 Kinase Biochemical Assay (ADP-Glo)
# experimentalSetup: Wee1 kinase domain, 15 uM ATP, ADP-Glo
Documented IC50 across a set of compounds

compound: COc1ccc(Nc2ncc3c(n2)N(c2cccc(N=S(C)(C)=O)n2)[C@@H]2CC(C)(C)OC[C@]32C)nn1 (single isomer, unassigned)
IC50: < 10 nM
//
compound: CNCc1cccc(N2c3nc(Nc4ccc(N5CCCCC5)cc4)ncc3[C@@]3(C)COC(C)(C)C[C@@H]23)n1 (single isomer, unassigned)
IC50: < 10 nM
//
compound: C[C@H]1COC(=O)N1c1cccc(N2c3nc(Nc4ccc(N5CCN(C)CC5)nn4)ncc3[C@]3(C)COC(C)(C)C[C@H]23)n1 (single isomer, unassigned)
IC50: 100 to 1000 nM
//
compound: CN1C[C@@H]2C[C@H]1CN2c1ccc(Nc2ncc3c(n2)N(c2cccc(N=S(C)(C)=O)n2)[C@H]2CC(C)(C)OC[C@@]32C)cc1F (single isomer, unassigned)
IC50: 100 to 1000 nM
//
compound: C[C@H]1COC(=O)N1c1cccc(N2c3nc(Nc4ccc(OC5CCNCC5)nc4)ncc3[C@]3(C)COC(C)(C)C[C@H]23)n1 (single isomer, unassigned)
IC50: 100 to 1000 nM

====

# systemUnderTest: Wee1 kinase domain (Homo sapiens, UniProt P30291)
# Construct: Wee1 kinase domain was purchased from Carna (catalog #05-177); purchased Carna 05-177
# assayOverview: Wee1 Kinase Biochemical Assay (ADP-Glo)
# experimentalSetup: class symbols; 1 nM Wee1 enzyme, 15 uM ATP, 4 hours at 25° C.
pIC50: −log10 of the molar value.
Documented pIC50 across a set of compounds
reportedProperty: pIC50

compound: CNCc1cccc(N2c3nc(Nc4ccc(N5C[C@H]6C[C@@H](C5)O6)cc4)ncc3[C@@]3(C)COC(C)(C)C[C@@H]23)n1 (single isomer, unassigned) [Example 481]
systemUnderTest: Wee1 kinase domain (Homo sapiens, UniProt P30291)
reportedProperty: pIC50
reading: > 8.00

compound: C[C@H]1CN(c2cccc(N3c4nc(Nc5ccc(N6CCN(C)CC6)cc5)ncc4[C@]4(C)COC(C)(C)C[C@H]34)n2)C(=O)O1 (single isomer, unassigned) [Example 598]
systemUnderTest: Wee1 kinase domain (Homo sapiens, UniProt P30291)
reportedProperty: pIC50
reading: 6.00 to 7.00

compound: CN1CC[C@H](n2ccc(Nc3ncc4c(n3)N(c3cccc(N=S(C)(C)=O)n3)[C@@H]3CC(C)(C)OC[C@]43C)cc2=O)C1 [Example 805]
systemUnderTest: Wee1 kinase domain (Homo sapiens, UniProt P30291)
reportedProperty: pIC50
reading: > 8.00

compound: CNC1(c2cccc(N3c4nc(Nc5ccc(N6CCOCC6)cc5)ncc4[C@@]4(C)COC(C)(C)C[C@@H]34)n2)CC1 (single isomer, unassigned) [Example 543]
systemUnderTest: Wee1 kinase domain (Homo sapiens, UniProt P30291)
reportedProperty: pIC50
reading: > 8.00

compound: CN1CC[C@@H]2CN(c3ccc(Nc4ncc5c(n4)N(c4cccc(C(C)(C)O)n4)[C@@H]4CC(C)(C)OC[C@]54C)cc3)C[C@@H]21 (single isomer, unassigned) [Example 437]
systemUnderTest: Wee1 kinase domain (Homo sapiens, UniProt P30291)
reportedProperty: pIC50
reading: > 8.00

compound: CN1CC(c2ccc(Nc3ncc4c(n3)N(c3cccc(N=S5(=O)CCCC5)n3)[C@@H]3CC(C)(C)OC[C@]43C)cc2)C1 (single isomer, unassigned) [Example 754]
systemUnderTest: Wee1 kinase domain (Homo sapiens, UniProt P30291)
reportedProperty: pIC50
reading: > 8.00

compound: CN1C[C@@H]2C[C@H]1CN2c1ccc(Nc2ncc3c(n2)N(c2cccc(N4CCCC4=O)n2)[C@H]2CC(C)(C)OC[C@@]32C)cc1F [Example 641]
systemUnderTest: Wee1 kinase domain (Homo sapiens, UniProt P30291)
reportedProperty: pIC50
reading: 6.00 to 7.00

compound: CN1CCN(c2cncc(Nc3ncc4c(n3)N(c3cccc(N=S(C)(C)=O)n3)[C@@H]3CC(C)(C)OC[C@]43C)c2)CC1 (single isomer, unassigned) [Example 483]
systemUnderTest: Wee1 kinase domain (Homo sapiens, UniProt P30291)
reportedProperty: pIC50
reading: > 8.00

compound: CC1(C)CC2N(c3cccc(N=S(C)(C)=O)n3)c3nc(Nc4ccc(N5CCOCC5)cc4)ncc3C2(C)CO1 (single isomer, unassigned) [Example 496]
systemUnderTest: Wee1 kinase domain (Homo sapiens, UniProt P30291)
reportedProperty: pIC50
reading: > 8.00

compound: CN1CC[C@@H]2CN(c3ccc(Nc4ncc5c(n4)N(c4cccc(N=S(C)(C)=O)n4)[C@@H]4CC(C)(C)OC[C@]54C)cc3)C[C@@H]21 (single isomer, unassigned) [Example 502]
systemUnderTest: Wee1 kinase domain (Homo sapiens, UniProt P30291)
reportedProperty: pIC50
reading: > 8.00

compound: CN1CC(c2ccc(Nc3ncc4c(n3)N(c3cccc(N5CCOC5=O)n3)[C@@H]3CC(C)(C)OC[C@]43C)cc2)C1 [Example 698]
systemUnderTest: Wee1 kinase domain (Homo sapiens, UniProt P30291)
reportedProperty: pIC50
reading: > 8.00

compound: CN[C@@H]1CCc2ccc(N3c4nc(Nc5ccc(N6CCOCC6)cc5)ncc4[C@@]4(C)COC(C)(C)C[C@@H]34)nc21 (single isomer, unassigned) [Example 553]
systemUnderTest: Wee1 kinase domain (Homo sapiens, UniProt P30291)
reportedProperty: pIC50
reading: > 8.00

compound: CNCc1cccc(N2c3nc(Nc4ccc(-n5ccnc5)c(F)c4)ncc3[C@]3(C)COC(C)(C)C[C@H]23)n1 (single isomer, unassigned) [Example 465]
systemUnderTest: Wee1 kinase domain (Homo sapiens, UniProt P30291)
reportedProperty: pIC50
reading: 6.00 to 7.00

compound: CN1C[C@@H]2C[C@H]1CN2c1ccc(Nc2ncc3c(n2)N(c2ccn(C)n2)[C@@H]2CC(C)(C)OC[C@]32C)cc1 (single isomer, unassigned) [Example 519]
systemUnderTest: Wee1 kinase domain (Homo sapiens, UniProt P30291)
reportedProperty: pIC50
reading: > 8.00

compound: CNCc1cccc(N2c3nc(Nc4ccc(N5CCOCC5)cc4)ncc3[C@]3(C)COCC[C@H]23)n1 (single isomer, unassigned) [Example 573]
systemUnderTest: Wee1 kinase domain (Homo sapiens, UniProt P30291)
reportedProperty: pIC50
reading: 6.00 to 7.00

compound: CC1(C)C[C@H]2N(c3cccc(P(C)(C)=O)n3)c3nc(Nc4ccn([C@H]5CCOC5)c(=O)c4)ncc3[C@@]2(C)CO1 [Example 782]
systemUnderTest: Wee1 kinase domain (Homo sapiens, UniProt P30291)
reportedProperty: pIC50
reading: > 8.00

compound: C[C@H]1COC(=O)N1c1cccc(N2c3nc(Nc4ccc(N5CC6(CN(C)C6)C5)cc4)ncc3[C@@]3(C)COCC[C@@H]23)n1 (single isomer, unassigned) [Example 784]
systemUnderTest: Wee1 kinase domain (Homo sapiens, UniProt P30291)
reportedProperty: pIC50
reading: > 8.00

compound: CN1CC[C@@H](Oc2ccc(Nc3ncc4c(n3)N(c3cccc(N5CCCC5=O)n3)[C@@H]3CC(C)(C)OC[C@]43C)cc2)C1 [Example 626]
systemUnderTest: Wee1 kinase domain (Homo sapiens, UniProt P30291)
reportedProperty: pIC50
reading: > 8.00

compound: CN1C[C@@H]2C[C@H]1CN2c1ccc(Nc2ncc3c(n2)N(c2cccc(N4CCOC4=O)n2)[C@H]2CC(C)(C)OC[C@@]32C)cc1F [Example 677]
systemUnderTest: Wee1 kinase domain (Homo sapiens, UniProt P30291)
reportedProperty: pIC50
reading: 7.00 to 8.00

compound: CC1(C)C[C@H]2N(c3cccc(N4CCOC4=O)n3)c3nc(Nc4ccc([C@]5(C)CCNC5)cc4)ncc3[C@@]2(C)CO1 [Example 664]
systemUnderTest: Wee1 kinase domain (Homo sapiens, UniProt P30291)
reportedProperty: pIC50
reading: > 8.00

compound: Cc1cc(Nc2ncc3c(n2)N(c2cccc(C(=O)N(C)C)n2)[C@@H]2CC(C)(C)OC[C@]32C)ccc1C1CCN(C)CC1 (single isomer, unassigned) [Example 585]
systemUnderTest: Wee1 kinase domain (Homo sapiens, UniProt P30291)
reportedProperty: pIC50
reading: > 8.00

compound: Cn1cc([C@@H]2C[C@H]2C(=O)Nc2ncc3c(n2)N(c2cccc(N=S(C)(C)=O)n2)[C@@H]2CC(C)(C)OC[C@]32C)cn1 (single isomer, unassigned) [Example 403]
systemUnderTest: Wee1 kinase domain (Homo sapiens, UniProt P30291)
reportedProperty: pIC50
reading: > 8.00
